# credit: ChEMBL document CHEMBL5620424

Biological target: UniProt:P08173
Experiment: Positive allosteric modulation at human M4 mAChR expressed in Flp-In-CHO cells co-expressing CAMYEL biosensor assessed as change in ACh-mediated response incubated for 5 mins by BRET assay
Type: cell-based
Details: filed as positive allosteric modulator
PARAMETER MEASURED: deltapEC50

Cc1ccc(-c2cnn(CC3CCCCC3)c2)c(-c2ccc3c(c2)C(=O)N(C)C3)n1 = 0.73
CNC(=O)c1cccc(-c2nc(C)ccc2-c2cnn(CC3CCCC3)c2)c1 = 1.99

(a) Cc1ccc(-c2cnn(CC3CCCC3)c2)c(-c2cccc(N)c2)n1
(b) CN1Cc2ccc(-c3ncccc3-c3cnn(CC4CCCC4)c3)cc2C1=O
(c) CCCN1Cc2ccc(-c3nc(C)ccc3-c3cnn(CC4CCCC4)c3)cc2C1=O
*Q* Rank by deltapEC50 (largest to smallest). Please respond with the labels ordered as the question requires.
*A* c, a, b

----------
Molecular target: Muscarinic acetylcholine receptor M4 (Homo sapiens)
Test: Positive allosteric modulation at human M4 mAChR expressed in Flp-In-CHO cells co-expressing CAMYEL biosensor assessed as efficacy of ACh-mediated cAMP signalling (log tau B) incubated for 5 mins by BRET assay
Format: functional, cell-based
Details: filed as positive allosteric modulator
PARAMETER MEASURED: log(activity)

Reference set, count: 3
Cc1ccc(-c2cnn(CC3CCCC3)c2)c(-c2ccc(N)c([N+](=O)[O-])c2)n1 = -1.29
Cc1ccc(-c2cnn(CC3CCCC3)c2)c(-c2ccc(F)c(F)c2)n1 = -0.07
Cc1ccc(-c2cnn(CC3CCCCC3)c2)c(-c2ccc3c(c2)C(=O)N(C)C3)n1 = -0.88

(I) Cc1ccc(-c2cnn(CC3CC3)c2)c(-c2ccc3c(c2)C(=O)N(C)C3)n1
(II) CN1Cc2ccc(-c3ncccc3-c3cnn(CC4CCCC4)c3)cc2C1=O
*Q* Thinking about recorded log(activity) values, which is higher, I or II ? Kindly state the label of the option you pick.
*A* I

----------
Biological target: Muscarinic acetylcholine receptor M4 (Homo sapiens)
Sequence (whole entry): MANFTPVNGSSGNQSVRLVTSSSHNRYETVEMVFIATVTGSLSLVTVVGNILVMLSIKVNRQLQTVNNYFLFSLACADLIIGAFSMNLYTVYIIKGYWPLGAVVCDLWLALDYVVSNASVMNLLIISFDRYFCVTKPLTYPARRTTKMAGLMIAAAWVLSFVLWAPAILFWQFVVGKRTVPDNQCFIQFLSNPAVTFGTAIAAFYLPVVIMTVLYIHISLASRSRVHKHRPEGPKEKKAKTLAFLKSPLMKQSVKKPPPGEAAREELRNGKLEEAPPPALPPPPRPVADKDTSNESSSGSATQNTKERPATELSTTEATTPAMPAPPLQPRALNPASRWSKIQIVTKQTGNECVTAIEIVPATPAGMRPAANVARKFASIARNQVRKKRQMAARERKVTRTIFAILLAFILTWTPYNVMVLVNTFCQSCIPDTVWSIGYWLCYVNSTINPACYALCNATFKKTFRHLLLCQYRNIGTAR
Assay: Positive allosteric modulation at human M4 mAChR expressed in Flp-In-CHO cells co-expressing CAMYEL biosensor assessed as change in maximum ACh-mediated response at 10 uM incubated for 5 mins by BRET assay relative to control
Assay type: cell-based
Conditions: filed as positive allosteric modulator
PARAMETER MEASURED: Emax (%)

Reference set, count: 5
Cc1ccc(-c2cnn(CC3CCCC3)c2)c(-c2cccc(C(N)=O)c2)n1 = 65.6
Cc1ccc(-c2cnn(CC3CCCC3)c2)c(-c2cccc(C(=O)N(C)C)c2)n1 = 97.7
Cc1ccc(-c2cnn(CC3CCN(C(=O)OC(C)(C)C)CC3)c2)c(-c2ccc3c(c2)C(=O)N(C)C3)n1 = 52.5
CN1Cc2ccc(-c3ncccc3-c3cnn(CC4CCCC4)c3)cc2C1=O = 41.6
CNC(=O)c1cccc(-c2nc(C)ccc2-c2cnn(CC3CCCC3)c2)c1 = 61.3

(1) Cc1ccc(-c2cnn(CC3CCCC3)c2)c(-c2ccc3c(c2)C(=O)NC3)n1
(2) CCCN1Cc2ccc(-c3nc(C)ccc3-c3cnn(CC4CCCC4)c3)cc2C1=O
(3) Cc1ccc(-c2cnn(CC3CCCC3)c2)c(-c2ccc(F)c(F)c2)n1
*Q* Sort low-to-high on Emax, please. Please respond with the labels ordered as the question requires.
*A* 2, 1, 3
(2: 50.5%, 1: 73.3%, 3: 129%)
